Attribution: ChEMBL document CHEMBL1155191

test system: Mycobacterium tuberculosis; assay: Antimycobacterial activity against Mycobacterium tuberculosis CIB99 after 5 to 7 days by microplate alamar blue assay; assay type: functional
Catalogue of MIC readings, one per entry.
API: value field is a number in µM; no unit string.

Some entries whose results are on file:
compound	MIC (µM)
CCCCCCCCCCCCCCC(COCc1ccccc1)N(CC)CC (stereo not given)	3.1
CCCCCCCCCCCCCCC(CO)NC(=O)OC(C)(C)C (stereo not given)	84
CCCCCCCCCCCCCCC(O)CNC1CCCCC1 (stereo not given)	11
CCCCCCCCCCCCCCC(CNC(=O)CCCC(=O)O)NC(=O)OC(C)(C)C (stereo not given)	133
CCCCCCCCCCCCCCC(COCc1ccccc1)NCC(=O)OCC (stereo not given)	72

Consider the compound CCCCCCCCCCCCCCC(N)COCc1ccccc1 (stereo not given) and give its recorded MIC. 3.6

Please indicate MIC recorded for CCCCCCCCCCCCCCC(N)CO (stereo not given) 49

Let me know recorded MIC for CCCCCCCCCCCCCCC(COCc1ccccc1)NC(=O)CCC(=O)O (stereo not given) , thanks. 140

Could you please provide reported MIC for CCCCCCCCCCCCCCC(N)CN(CC)CC (stereo not given) ? Thanks! 8

====

tested on: Mycobacterium tuberculosis; test: Antimycobacterial activity against Mycobacterium tuberculosis CIB99 after 5 to 7 days by microplate alamar blue assay; format: functional
Recorded MIC, one value per entry.
The figure you give is taken to be in µM; do not add the unit.

Here's what some known entries look like.
compound	MIC (µM)
CCCCCCCCCCCCCCC(CN(CC(=O)OCC)CC(=O)OCC)NC(=O)OC(C)(C)C (stereo unspecified)	59
CCCCCCCCCCCCCCC(COCc1ccccc1)NC(=O)CCCC(=O)O (stereo unspecified)	68
CCCCCCCCCCCCCCC(N)CN (stereo unspecified)	12.6

Provide only the value of recorded MIC for CCCCCCCCCCCCCCC(O)CNCc1ccccc1 (stereo unspecified) 72

Give reported MIC value for CCCCCCCCCCCCCCC(CN(CC)CC)NC(=O)OC(C)(C)C (stereo unspecified) 15.2

Identify MIC associated with the compound CCCCCCCCCCCCCCC(CNCC)NC(=O)OC(C)(C)C (stereo unspecified) 32

Please look at this compound and report its MIC: CCCCCCCCCCCCCCC(CO)N(CC)CC (stereo unspecified) 40

Give the measured MIC for CCCCCCCCCCCCCCC(COCc1ccccc1)NCC (stereo unspecified) 16.6

Quick one: give measured MIC for CCCCCCCCCCCCCCC(CN)NC(=O)OC(C)(C)C (stereo unspecified) 30
